Origin of measurements: patent US20230114728A1

Entries and their EC50
- SYSTEM_TESTED: E. coli K12 PBP3 (Escherichia coli, UniProt P0AD68)
- Sequence (P0AD68 1-577): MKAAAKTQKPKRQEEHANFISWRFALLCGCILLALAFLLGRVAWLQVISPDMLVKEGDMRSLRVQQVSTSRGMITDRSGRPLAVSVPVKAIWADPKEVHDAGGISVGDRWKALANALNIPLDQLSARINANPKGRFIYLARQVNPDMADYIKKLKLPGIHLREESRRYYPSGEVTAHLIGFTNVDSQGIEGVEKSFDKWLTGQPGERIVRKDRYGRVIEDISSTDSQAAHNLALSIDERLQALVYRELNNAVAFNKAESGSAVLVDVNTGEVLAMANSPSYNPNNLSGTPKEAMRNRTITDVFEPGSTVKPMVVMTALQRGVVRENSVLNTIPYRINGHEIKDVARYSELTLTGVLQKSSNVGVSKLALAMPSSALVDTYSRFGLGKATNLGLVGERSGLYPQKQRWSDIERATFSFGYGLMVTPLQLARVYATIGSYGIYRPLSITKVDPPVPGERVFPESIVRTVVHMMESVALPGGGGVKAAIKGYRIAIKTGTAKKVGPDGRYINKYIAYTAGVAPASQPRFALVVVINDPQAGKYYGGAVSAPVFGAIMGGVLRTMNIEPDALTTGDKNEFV
- EXPERIMENT_NOTES: biochemical

Example molecules with recorded EC50:
# input Need EC50, item O=C(Nc1ccccc1)NC(C(=O)N[C@H]1Cc2ccc(F)c(C(=O)O)c2OB1O)c1ncc(O)cc1F (stereo partly drawn)
# output 30 to 500 µM

# input Need EC50, item O=C(O)c1c(F)ccc2c1OB(O)[C@@H](NC(=O)C(NC(=O)N1CCN(CCF)C(=O)C1=O)c1c(F)cc(O)c(O)c1F)C2 (stereo partly drawn)
# output < 30 µM

# input Need EC50, item CCN1CCN(C(=O)NC(C(=O)N[C@H]2Cc3cccc(C(=O)O)c3OB2O)c2ccc(O)c(N)c2)C(=O)C1=O (stereo partly drawn)
# output < 30 µM

# input Need EC50, item C[C@H]1CN(CCN)C(=O)C(=O)N1C(=O)NC(C(=O)N[C@H]1Cc2cccc(C(=O)O)c2OB1O)c1c(F)cc(O)cc1F (stereo partly drawn)
# output < 30 µM

# input Need EC50, item O=C(NCCN1CCN(C(=O)NC(C(=O)N[C@H]2Cc3ccc(F)c(C(=O)O)c3OB2O)c2ncc(O)cc2F)C(=O)C1=O)c1c(F)cc(O)c(O)c1Cl (stereo partly drawn)
# output < 30 µM

Read the next record carefully.
# input Need EC50, item NS(=O)(=O)Nc1cccc(C(NC(=O)N2CCN(Cc3c(F)cc(O)c(O)c3Cl)C(=O)C2=O)C(=O)N[C@H]2Cc3cccc(C(=O)O)c3OB2O)c1 (stereo partly drawn)
# output < 30 µM
